The measured values listed here are drawn from ChEMBL document CHEMBL2074565.

# IC50 annotations
SYSTEM_NAME: Solute carrier family 22 member 2 (Rattus norvegicus, UniProt Q9R0W2)
Sequence (Q9R0W2 whole entry): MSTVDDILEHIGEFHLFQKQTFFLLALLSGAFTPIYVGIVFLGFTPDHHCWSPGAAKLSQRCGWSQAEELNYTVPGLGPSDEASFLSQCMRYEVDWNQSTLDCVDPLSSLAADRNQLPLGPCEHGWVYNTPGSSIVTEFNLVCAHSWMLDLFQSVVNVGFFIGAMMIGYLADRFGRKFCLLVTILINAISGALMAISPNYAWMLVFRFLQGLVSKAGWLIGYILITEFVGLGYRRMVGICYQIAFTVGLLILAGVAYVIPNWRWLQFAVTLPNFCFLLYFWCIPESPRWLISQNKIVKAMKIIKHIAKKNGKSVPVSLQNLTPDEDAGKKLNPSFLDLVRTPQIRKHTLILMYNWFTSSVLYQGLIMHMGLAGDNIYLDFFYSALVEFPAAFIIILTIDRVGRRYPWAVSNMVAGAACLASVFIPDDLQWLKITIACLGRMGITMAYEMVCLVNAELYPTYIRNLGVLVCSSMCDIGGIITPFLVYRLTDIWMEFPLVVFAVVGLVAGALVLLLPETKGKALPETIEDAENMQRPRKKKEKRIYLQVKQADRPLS
ASSAY: TP_TRANSPORTER: inhibition of TEA uptake (TEA: 100 uM) in Xenopus laevis oocytes
Note: unit µM is implicit; provide only the numeric part.

[
  {
    "MOLECULE": "CN/C(=N/CCSCc1nc[nH]c1C)NC#N [CIMETIDINE]",
    "IC50 / µM": 373
  }
]

Bench note: what IC50 did C[N+](C)(C)CCO [CHOLINE] show? 159

Bench note: what IC50 did "CCN1/C(=C/c2ccc3ccccc3[n+]2CC)C=Cc2ccccc21" show? 13.8
